B1: glmS ribozyme (parent)
chain: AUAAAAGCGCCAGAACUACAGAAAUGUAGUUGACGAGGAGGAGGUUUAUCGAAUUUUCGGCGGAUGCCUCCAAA

Variants of: B1
Assay: self-cleavage kobs at 40 uM GlcN6P; higher = faster cleavage; RNA array
Conditions: with glucosamine-6-phosphate
This sample holds only a part of the variants without activity.
QUANTITY: self-cleavage kobs at 40 uM GlcN6P

Task item: What self-cleavage kobs at 40 uM GlcN6P value was documented for this variant, AUAAAAGCGCCAGAACUACAGAAAUGUAGAUGACGAGGAGGACGUUUAUCGAAUUUUCGGCGGAUGCCUCCAAA [U30A G43C] ?
Reply: < 1e-05 s⁻¹
